viability at 5 µM values, listed per item
- ASSAY: Cytotoxicity against mouse RAW264 cells assessed as cell survival at 5 uM relative to control
- Type: toxicity
- STUDY_CONDITIONS: read-out: Survival

>  <MOLECULE>
CC(C)CN1CC2=C(CC[C@@H]3[C@@]4(C)CCC[C@](C)(C(=O)O)[C@@H]4CC[C@@]23C)C1=O

>  <viability at 5 µM [%]>
100

$$$$
>  <MOLECULE>
CC(C)CN1CC2=C(C1=O)[C@]1(C)CC[C@@H]3[C@](C)(CCC[C@]3(C)C(=O)O)[C@H]1CC2

>  <viability at 5 µM [%]>
100

$$$$
>  <MOLECULE>
C[C@]12CCC[C@](C)(C(=O)O)[C@@H]1CC[C@@]1(C)C3=C(CC[C@H]21)CNC3=O

>  <viability at 5 µM [%]>
100

$$$$
>  <MOLECULE>
CC(C)CCN1CC2=C(C1=O)[C@]1(C)CC[C@@H]3[C@](C)(CCC[C@]3(C)C(=O)O)[C@H]1CC2

>  <viability at 5 µM [%]>
100

$$$$
>  <MOLECULE>
C[C@]12CCC[C@](C)(C(=O)O)[C@@H]1CC[C@@]1(C)C3=C(CC[C@H]21)C(=O)N(CCc1ccccc1)C3

>  <viability at 5 µM [%]>
100

$$$$
>  <MOLECULE>
C[C@]12CC(=O)[C@@H](O)[C@](C)(CO)[C@@H]1CC[C@@]1(C)c3cocc3CC[C@H]21 [SPONGIADIOL]

>  <viability at 5 µM [%]>
97

$$$$
>  <MOLECULE>
CO[C@H]1O[C@@H](OC)C2=C1CC[C@@H]1[C@@]3(C)CCC[C@](C)(C(=O)O)[C@@H]3CC[C@@]21C

>  <viability at 5 µM [%]>
98

$$$$
>  <MOLECULE>
C[C@]12C[C@@H](O)C(=O)[C@](C)(CO)[C@@H]1CC[C@@]1(C)c3cocc3CC[C@H]21 [ISOSPONGIADIOL]

>  <viability at 5 µM [%]>
96

$$$$
>  <MOLECULE>
C[C@]12CCC[C@](C)(C(=O)O)[C@@H]1CC[C@@]1(C)C3=C(CC[C@H]21)CN(CCc1ccccc1)C3=O

>  <viability at 5 µM [%]>
97

$$$$
>  <MOLECULE>
C[C@]12CCC[C@](C)(C(=O)O)[C@@H]1CC[C@@]1(C)c3cocc3CC[C@H]21

>  <viability at 5 µM [%]>
100

$$$$
>  <MOLECULE>
CC(C)CCN1CC2=C(CC[C@@H]3[C@@]4(C)CCC[C@](C)(C(=O)O)[C@@H]4CC[C@@]23C)C1=O

>  <viability at 5 µM [%]>
87

$$$$

----------
Measured IC50 values are reported for all entries that follow.
- ASSAY: Inhibition of RANKL-stimulated osteoclastogenesis in mouse RAW264 cells assessed as reduction in TRAP activity after 4 days in presence of RANKL
- Assay type: functional, cell-based

>  <SMILES_CODE>
C[C@]12CCC[C@](C)(C(=O)O)[C@@H]1CC[C@@]1(C)C3=C(CC[C@H]21)CNC3=O

>  <IC50>
> 50 µM

$$$$
>  <SMILES_CODE>
CC(C)CCN1CC2=C(CC[C@@H]3[C@@]4(C)CCC[C@](C)(C(=O)O)[C@@H]4CC[C@@]23C)C1=O

>  <IC50>
18 µM

$$$$
>  <SMILES_CODE>
CC(C)CN1CC2=C(C1=O)[C@]1(C)CC[C@@H]3[C@](C)(CCC[C@]3(C)C(=O)O)[C@H]1CC2

>  <IC50>
> 50 µM

$$$$
>  <SMILES_CODE>
C[C@]12CCC[C@](C)(C(=O)O)[C@@H]1CC[C@@]1(C)C3=C(CC[C@H]21)CN(CCc1ccccc1)C3=O

>  <IC50>
> 50 µM

$$$$
